Record form. Attribute: AIRE transcriptional activation functional score. Fill in for each entry.
B1: library; numbered along this chain (parent)
chain: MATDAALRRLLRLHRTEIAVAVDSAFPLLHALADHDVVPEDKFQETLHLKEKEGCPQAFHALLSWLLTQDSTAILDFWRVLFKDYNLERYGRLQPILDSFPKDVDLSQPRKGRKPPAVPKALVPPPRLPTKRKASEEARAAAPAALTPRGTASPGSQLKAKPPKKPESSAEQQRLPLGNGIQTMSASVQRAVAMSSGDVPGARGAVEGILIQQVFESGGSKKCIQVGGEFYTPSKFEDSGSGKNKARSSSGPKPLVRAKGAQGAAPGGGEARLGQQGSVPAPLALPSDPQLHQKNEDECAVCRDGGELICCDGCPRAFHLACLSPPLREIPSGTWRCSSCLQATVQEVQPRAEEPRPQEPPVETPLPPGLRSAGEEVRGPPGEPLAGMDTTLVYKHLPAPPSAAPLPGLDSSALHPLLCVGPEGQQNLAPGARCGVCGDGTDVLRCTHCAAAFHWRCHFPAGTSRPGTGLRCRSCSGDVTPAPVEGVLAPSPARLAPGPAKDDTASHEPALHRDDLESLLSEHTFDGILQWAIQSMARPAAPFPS

variants of: B1; experiment: AIRE transcriptional activation functional score (insulin promoter-GFP; nonsense median 0, synonymous median 1) (normalised score); higher = higher AIRE activity (more reporter activation); conditions: with insulin promoter-GFP reporter in HEK293

Take a look at these entries with their results.
variantString | testResult
V38Q | -0.0109
E40Y | -0.301

Parameters: items (list). Returns: AIRE transcriptional activation functional score for each item.
1. K243T
2. A505E

Completion:
1: 1.08; 2: 0.669

Parameters: items (list). Returns: AIRE transcriptional activation functional score for each item.
1. L273H
2. L308C
3. Q108S
4. L210V

Completion:
[0.264, 1.43, 0.618, 0.768]

Parameters: items (list). Returns: AIRE transcriptional activation functional score for each item.
1. P331M
2. T46M
3. P460F

Completion:
[1.35, 2.55, 0.995]
